# assayed.system: Ectonucleotide pyrophosphatase/phosphodiesterase family member 1 (Homo sapiens, UniProt P22413)
# Sequence (P22413 whole entry): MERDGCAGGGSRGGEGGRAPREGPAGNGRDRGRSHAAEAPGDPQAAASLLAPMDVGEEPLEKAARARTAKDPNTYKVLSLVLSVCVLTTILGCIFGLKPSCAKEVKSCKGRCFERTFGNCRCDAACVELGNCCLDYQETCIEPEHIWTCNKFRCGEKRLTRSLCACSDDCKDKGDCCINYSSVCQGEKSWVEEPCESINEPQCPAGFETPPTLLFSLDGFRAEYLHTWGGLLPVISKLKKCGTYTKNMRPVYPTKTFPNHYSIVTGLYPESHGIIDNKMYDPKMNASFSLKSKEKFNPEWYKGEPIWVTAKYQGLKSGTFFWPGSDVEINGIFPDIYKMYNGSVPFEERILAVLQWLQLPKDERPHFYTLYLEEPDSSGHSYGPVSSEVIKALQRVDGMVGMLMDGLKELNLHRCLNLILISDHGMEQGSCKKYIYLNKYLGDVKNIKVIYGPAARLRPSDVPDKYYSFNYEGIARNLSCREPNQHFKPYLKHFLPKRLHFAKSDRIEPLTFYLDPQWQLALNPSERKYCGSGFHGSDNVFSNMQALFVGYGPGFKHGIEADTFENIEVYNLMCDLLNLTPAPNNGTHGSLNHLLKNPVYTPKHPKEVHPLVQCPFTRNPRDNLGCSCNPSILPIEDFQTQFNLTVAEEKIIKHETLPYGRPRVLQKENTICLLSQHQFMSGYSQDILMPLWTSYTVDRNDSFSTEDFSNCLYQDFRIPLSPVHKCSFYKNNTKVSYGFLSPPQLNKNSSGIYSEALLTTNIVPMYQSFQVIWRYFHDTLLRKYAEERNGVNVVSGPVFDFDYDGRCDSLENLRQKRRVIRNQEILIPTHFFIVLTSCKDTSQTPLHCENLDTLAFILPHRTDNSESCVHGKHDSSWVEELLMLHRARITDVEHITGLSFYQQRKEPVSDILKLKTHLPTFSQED
# test: Inhibition of human recombinant NPP1 assessed as release of p-nitrophenol by microtitre plate spectrophotometry
experimental.endpoint: IC50 (µM)
Lab book: enter the figure in µM, no units written.

Give reported IC50 value for `S=c1[nH]nc(-c2cccc(OCc3ccccc3)c2)o1`
494

Give reported IC50 value for `S=c1[nH]nc(-c2ccc(OCc3ccccc3)cc2)o1`
628

Give reported IC50 value for `CC(C)(C)[Si](C)(C)Oc1ccc(-c2n[nH]c(=S)o2)cc1`
368

Give reported IC50 value for `Oc1ccc(-c2n[nH]c(=S)s2)cc1`
900

Give reported IC50 value for `S=c1[nH]nc(-c2ccncc2)s1`
998

Give reported IC50 value for `S=c1[nH]nc(CCCc2n[nH]c(=S)o2)o1`
467
